System: isolated myocardium of guinea-pigs (right ventricular papillary muscles)
assay.procedure: Effects on the action potential duration in the isolated myocardium of guinea-pigs
Assay type: cell-based, guinea-pigs (male, Hartley strain)
test.settings: Cavia porcellus, 10 min; 10^-5 M, another 10 min, stimulated at 1 Hz, 37° C.
I would appreciate it if you labelled entries 1 when APD90 prolongation (%) at 10 µM is 20% or higher, otherwise 0.

Asked: Please check the record CS(=O)(=O)Nc1ccc(C(CO)N2CCC(C(=O)c3ccc(F)cc3)CC2)cc1 (stereo not shown) [compound (3) A] and state if its APD90 prolongation (%) at 10 µM is at or above 20%.
Given back: 1

Asked: Please check the record CS(=O)(=O)Nc1ccc(C(CO)N2CCC(C(=O)c3ccc(Cl)cc3)CC2)cc1 (stereo not shown) [compound (3) B] and state if its APD90 prolongation (%) at 10 µM is at or above 20%.
Given back: 0

Asked: Please check the record Cc1cccc(CCN(C)CCCCC(=O)c2ccc(NS(C)(=O)=O)cc2)n1 [compound (2) E] and state if its APD90 prolongation (%) at 10 µM is at or above 20%.
Given back: 1

Asked: Please check the record CS(=O)(=O)Nc1ccc([S+]([O-])C2CCN(CCc3cccnc3)CC2)cc1 (stereo not shown) [compound (1) B] and state if its APD90 prolongation (%) at 10 µM is at or above 20%.
Given back: 1

Asked: Please check the record Cc1cccc(CCN(C)CCC(=O)c2ccc(NS(C)(=O)=O)cc2)n1 [compound (2) B] and state if its APD90 prolongation (%) at 10 µM is at or above 20%.
Given back: 0

Asked: Please check the record Cc1cccc(CCN(C)CCCC(=O)c2ccc(NS(C)(=O)=O)cc2)n1 [compound (2) C] and state if its APD90 prolongation (%) at 10 µM is at or above 20%.
Given back: 1

Asked: Please check the record CCN(CCCC(=O)c1ccc(NS(C)(=O)=O)cc1)CCc1cccc(C)n1 [compound (2) D] and state if its APD90 prolongation (%) at 10 µM is at or above 20%.
Given back: 1

Asked: Please check the record Cc1cccc(CCN(C)CC(=O)c2ccc(NS(C)(=O)=O)cc2)n1 [compound (2) A] and state if its APD90 prolongation (%) at 10 µM is at or above 20%.
Given back: 0

Asked: Please check the record CC(C)NCC(O)c1ccc(NS(C)(=O)=O)cc1 (stereo not shown) [Sotalol, reference compound] and state if its APD90 prolongation (%) at 10 µM is at or above 20%.
Given back: 0
